target: KAT2B (Homo sapiens, UniProt Q92831); assay: KAT2B degradation, Western Blot (Jess), NCI-H1048 cells; assay type: cell-based; set-up: degrader, Western blot (Jess); conditions: NCI-H1048 cells, KAT2B, 24 h, Western Blot, vs DMSO; read-out: KAT2B NCI-H1048 DC50
Sequence (Q92831 whole entry): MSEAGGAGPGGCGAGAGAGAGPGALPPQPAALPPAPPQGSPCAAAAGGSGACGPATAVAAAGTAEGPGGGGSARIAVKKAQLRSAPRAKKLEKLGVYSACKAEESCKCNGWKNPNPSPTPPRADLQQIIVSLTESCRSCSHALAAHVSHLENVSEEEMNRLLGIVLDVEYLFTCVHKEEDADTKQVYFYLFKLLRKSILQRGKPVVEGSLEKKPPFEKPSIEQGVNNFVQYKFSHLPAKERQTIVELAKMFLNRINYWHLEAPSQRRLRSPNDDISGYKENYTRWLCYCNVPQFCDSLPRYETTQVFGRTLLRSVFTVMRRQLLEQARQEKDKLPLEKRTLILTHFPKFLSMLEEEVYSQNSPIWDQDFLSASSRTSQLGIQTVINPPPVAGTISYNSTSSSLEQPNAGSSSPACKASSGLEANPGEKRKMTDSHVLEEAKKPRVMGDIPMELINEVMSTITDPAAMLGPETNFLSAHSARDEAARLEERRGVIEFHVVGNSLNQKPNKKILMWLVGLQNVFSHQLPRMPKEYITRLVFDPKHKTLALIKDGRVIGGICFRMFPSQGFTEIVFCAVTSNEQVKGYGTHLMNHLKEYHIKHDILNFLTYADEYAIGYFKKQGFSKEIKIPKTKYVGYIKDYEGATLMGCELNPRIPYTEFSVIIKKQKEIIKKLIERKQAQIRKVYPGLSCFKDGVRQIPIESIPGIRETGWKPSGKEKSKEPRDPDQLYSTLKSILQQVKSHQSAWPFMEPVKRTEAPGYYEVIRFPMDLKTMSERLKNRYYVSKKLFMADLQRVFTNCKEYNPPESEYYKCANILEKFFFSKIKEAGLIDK

Compound	System Under Test	DC50
Cc1cc(N2CCC3(CCN(Cc4ccc([C@H]5C[C@@H](Nc6cnn(C)c(=O)c6Cl)CN(C)C5)cc4)CC3)CC2)ccc1C1CCC(=O)NC1=O (stereo partly shown)	KAT2B (Homo sapiens, UniProt Q92831)	< 1 nM
Cc1cc(N2CCC3(CCN(C(=O)c4ccc([C@H]5C[C@@H](Nc6cnn(C)c(=O)c6Br)CN(C)C5)cc4)CC3)CC2)ccc1OC1CCC(=O)NC1=O (stereo partly shown)	KAT2B (Homo sapiens, UniProt Q92831)	> 30 nM
CN1C[C@H](Nc2cnn(C)c(=O)c2Br)C[C@H](c2ccc(C(=O)N3CCC4(CCC(c5ccc(C6CCC(=O)NC6=O)c(F)c5)CC4)CC3)cc2)C1 (stereo partly shown)	KAT2B (Homo sapiens, UniProt Q92831)	< 1 nM
CN1C[C@H](Nc2cnn(C)c(=O)c2Br)C[C@H](c2ccc(CN3CCN(c4ccc5c(C6CCC(=O)NC6=O)nccc5c4)CC3)cc2)C1 (stereo partly shown)	KAT2B (Homo sapiens, UniProt Q92831)	< 1 nM
C[C@H](Nc1nn(C)c(=O)c2cccnc12)[C@H](c1ccc(C(=O)N2CCC3(CC2)CCN(c2ccc(C4CCC(=O)NC4=O)cc2)CC3)cc1)N(C)C (stereo partly shown)	KAT2B (Homo sapiens, UniProt Q92831)	1 to 30 nM
Cc1ncsc1-c1ccc(CNC(=O)[C@@H]2C[C@@H](O)CN2C(=O)[C@@H](NC(=O)C2CCN(C3CCN(C(=O)c4ccc([C@H]5C[C@@H](Nc6cnn(C)c(=O)c6Br)CN(C)C5)cc4)CC3)CC2)C(C)(C)C)cc1	KAT2B (Homo sapiens, UniProt Q92831)	> 30 nM
CN1C[C@H](Nc2cnn(C)c(=O)c2Br)C[C@H](c2ccc(N3CCC(Oc4cccc(C5CCC(=O)NC5=O)c4)CC3)cc2)C1 (stereo partly shown)	KAT2B (Homo sapiens, UniProt Q92831)	< 1 nM
COc1cc(N2CCC3(CCN(C(=O)c4ccc([C@H]5C[C@@H](Nc6cnn(C)c(=O)c6Br)CN(C)C5)cc4)CC3)CC2)c(C)cc1C1CCC(=O)NC1=O (stereo partly shown)	KAT2B (Homo sapiens, UniProt Q92831)	> 30 nM
Cc1ncsc1-c1ccc(CNC(=O)[C@@H]2C[C@@H](O)CN2C(=O)[C@@H](NC(=O)CC2CCN(C(=O)c3ccc([C@H]4C[C@@H](Nc5cnn(C)c(=O)c5Br)CN(C)C4)cc3)CC2)C(C)(C)C)cc1	KAT2B (Homo sapiens, UniProt Q92831)	> 30 nM
Cc1cc(C2CCC(=O)NC2=O)cnc1N1CCC2(CCN(C(=O)c3ccc([C@H]4C[C@@H](Nc5cnn(C)c(=O)c5Cl)CN(C)C4)cc3)CC2)CC1 (stereo partly shown)	KAT2B (Homo sapiens, UniProt Q92831)	< 1 nM
CN1C[C@H](Nc2cnn(C)c(=O)c2Br)C[C@H](c2ccc(CN3Cc4cc5c(cc4C3)C(=O)N(C3CCC(=O)NC3=O)C5=O)cc2)C1 (stereo partly shown)	KAT2B (Homo sapiens, UniProt Q92831)	> 30 nM
Cc1cc(N2CCC3(CCN(C(=O)c4ccc([C@H]5C[C@@H](Nc6cnn(C)c(=O)c6Cl)CN(C)C5)cc4)CC3)CC2)c(F)cc1C1CCC(=O)NC1=O (stereo partly shown)	KAT2B (Homo sapiens, UniProt Q92831)	> 30 nM
Cc1c(N[C@@H]2C[C@H](c3ccc(CN4CCN(c5cccc(C6CCC(=O)NC6=O)c5)CC4)cc3)CN(C)C2)cnn(C)c1=O (stereo partly shown)	KAT2B (Homo sapiens, UniProt Q92831)	1 to 30 nM
Cc1cc(N2CC3(CCN(C(=O)c4ccc([C@H]5C[C@@H](Nc6cnn(C)c(=O)c6Br)CN(C)C5)cc4)CC3)C2)ccc1C1CCC(=O)NC1=O (stereo partly shown)	KAT2B (Homo sapiens, UniProt Q92831)	1 to 30 nM
CN1C[C@H](Nc2cnn(C)c(=O)c2Br)C[C@H](c2ccc(C(=O)N3CCC(Oc4ccc(C5CCC(=O)NC5=O)cc4F)CC3)cc2)C1 (stereo partly shown)	KAT2B (Homo sapiens, UniProt Q92831)	1 to 30 nM
CN1C[C@H](Nc2cnn(C)c(=O)c2Br)C[C@H](c2ccc(COc3ccc4c(c3)C(=O)N(C3CCC(=O)NC3=O)C4=O)cc2)C1 (stereo partly shown)	KAT2B (Homo sapiens, UniProt Q92831)	1 to 30 nM
Cc1c(N[C@@H]2C[C@H](c3ccc(CN4CCN(c5cncc(C6CCC(=O)NC6=O)c5)CC4)cc3)CN(C)C2)cnn(C)c1=O (stereo partly shown)	KAT2B (Homo sapiens, UniProt Q92831)	> 30 nM
CN1C[C@H](Nc2cnn(C)c(=O)c2Cl)C[C@H](c2ccc(CN3CCC4(CC3)CCN(c3ccc(C5CCC(=O)NC5=O)c(C(F)(F)F)c3)CC4)cc2)C1 (stereo partly shown)	KAT2B (Homo sapiens, UniProt Q92831)	> 30 nM
CN1C[C@H](Nc2cnn(C)c(=O)c2Br)C[C@H](c2ccc(COc3ccc4c(=O)n(C5CCC(=O)NC5=O)ccc4c3)cc2)C1 (stereo partly shown)	KAT2B (Homo sapiens, UniProt Q92831)	1 to 30 nM
CN1C[C@H](Nc2cnn(C)c(=O)c2Cl)C[C@H](c2ccc(C(=O)N3CCC4(CCC(c5ccc(C6CCC(=O)NC6=O)cc5)CC4)CC3)cc2)C1 (stereo partly shown)	KAT2B (Homo sapiens, UniProt Q92831)	< 1 nM
CN1C[C@H](Nc2cnn(C)c(=O)c2Br)C[C@H](c2ccc(C(=O)N3CCC4(CCC(c5ccc(C6CCC(=O)NC6=O)cc5)CC4)CC3)cc2)C1 (stereo partly shown) [Compound 326]	KAT2B (Homo sapiens, UniProt Q92831)	< 1 nM
CN1C[C@H](Nc2cnn(C)c(=O)c2Br)C[C@H](c2ccc(CN3CCN(c4cc5c(cc4F)C(=O)N(C4CCC(=O)NC4=O)C5=O)CC3)cc2)C1 (stereo partly shown)	KAT2B (Homo sapiens, UniProt Q92831)	1 to 30 nM
